Ref: the supplement of paper PMC9233669

- Test system: biotinyl-Leu-oxazolone
- assay_info: self-aminoacylation, catalytic enhancement (BLO) (fold over background); higher = more active; k-Seq, kA / k0A0; sequences stand for … in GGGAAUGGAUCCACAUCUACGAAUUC…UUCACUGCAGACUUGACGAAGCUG
This sample holds only a part of the variants without activity.
Measured self-aminoacylation of individual entries
In your answer, state the number alone without any accompanying words.

// solved cases for self-aminoacylation follow
> print(dat)
                             input.sequence             target.desc  recorded.result
1  AUUUCCCUGGUCAUUGAGUGA [Fam2.1 aminoacylation ribozyme variant]  biotinyl-Leu-oxazolone             8.38
2  CCACACUACAAGCAAUCGGUU [Fam1B.1 aminoacylation ribozyme variant]  biotinyl-Leu-oxazolone            0.677
3  AAGUUGGCUAAUACUCGCAAG [Fam3.1 aminoacylation ribozyme variant]  biotinyl-Leu-oxazolone            0.979
4  ACUACCCUGGUCAUCGAGUGA [Fam2.1 aminoacylation ribozyme variant]  biotinyl-Leu-oxazolone             43.4

Ask: Dear colleague, please send me the reported self-aminoacylation for CCACAAUUGAAGCAAUCGGUC [Fam1B.1 aminoacylation ribozyme variant] when you can.
Result: 0.716
